Target: Paired box protein Pax-6 (Homo sapiens) (UniProt P26367)
Sequence (P26367 whole entry, looked up): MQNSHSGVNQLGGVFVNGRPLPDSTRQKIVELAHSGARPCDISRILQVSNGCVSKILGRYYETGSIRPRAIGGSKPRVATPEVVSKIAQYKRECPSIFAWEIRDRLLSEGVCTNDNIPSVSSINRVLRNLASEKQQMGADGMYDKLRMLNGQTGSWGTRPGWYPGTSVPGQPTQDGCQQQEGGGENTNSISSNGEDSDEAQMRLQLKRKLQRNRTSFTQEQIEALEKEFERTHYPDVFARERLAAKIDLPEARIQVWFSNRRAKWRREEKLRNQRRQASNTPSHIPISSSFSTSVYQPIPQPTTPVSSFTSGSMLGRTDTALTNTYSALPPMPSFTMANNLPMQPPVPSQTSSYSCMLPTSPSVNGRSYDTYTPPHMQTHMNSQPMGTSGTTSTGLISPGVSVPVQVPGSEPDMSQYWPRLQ
Experiment: ATG_Pax6_CIS: Attagene CIS-FACTORIAL HepG2 Assay for human Paired Box 6 (PAX6) (AID 2282956)
Settings: HepG2 CIS-FACTORIAL PAX6 reporter transcription, RNA readout; actives raise or lower the signal
Activity calls are given as the source filed them. How the source made its calls: active means hit-call score of the fitted dose curve at least 0.9, where 1 is the maximum; inactive means score below 0.9.
Your answer must be one of the following: y for active, n for inactive

Q) What outcome does the record of this test show for `CC[N+](CC)(CC(=O)Nc1c(C)cccc1C)Cc1ccccc1` ?
A) n

Q) What outcome does the record of this test show for `[O-][n+]1ccc(Cl)cc1` ?
A) n

Q) What outcome does the record of this test show for `CCC(C)=NO` ?
A) n

Q) What outcome does the record of this test show for `CCOC(=O)CC(=O)OCC` ?
A) n

Q) What outcome does the record of this test show for `CCCCn1cc[n+](C)c1` ?
A) n

Q) What outcome does the record of this test show for `CNC[C@H](O)[C@@H](O)[C@H](O)[C@H](O)CO` ?
A) n

Q) What outcome does the record of this test show for `CN(C)c1ccc(C(c2ccccc2)c2ccc(N(C)C)cc2)cc1` ?
A) n

Q) What outcome does the record of this test show for `O=C(O)c1nc(Cl)c(Cl)c(Cl)c1Cl` ?
A) n

Q) What outcome does the record of this test show for `O=C(O)/C=C/C(=O)O` ?
A) n

Q) What outcome does the record of this test show for `Cc1ccccc1S(N)(=O)=O` ?
A) n

Q) What outcome does the record of this test show for `Clc1ccccn1` ?
A) n

Q) What outcome does the record of this test show for `NC(=O)c1ccc([N+](=O)[O-])cc1Cl` ?
A) n

Q) What outcome does the record of this test show for CCCCC(CC)COC(=O)CS (stereo unspecified) ?
A) n

Q) What outcome does the record of this test show for `F[B-](F)(F)F` ?
A) n

Q) What outcome does the record of this test show for CCCCCCC(O)CCCCCCCCCCC(=O)OC (stereo unspecified) ?
A) n

Q) What outcome does the record of this test show for CC[N+](CC)(CC(=O)Nc1c(C)cccc1C)Cc1ccccc1 (tested in a mixture with another compound) ?
A) n

Q) What outcome does the record of this test show for `OCCc1ccccn1` ?
A) n

Q) What outcome does the record of this test show for CCCCCCC1CCCC(=O)O1 (stereo unspecified) ?
A) n

Q) What outcome does the record of this test show for `CC/C=C\CC/C=C/C(OCC)OCC` ?
A) n

Q) What outcome does the record of this test show for `Cc1ccnc(N)c1` ?
A) n

Q) What outcome does the record of this test show for `Oc1ccc(Oc2ccccc2)cc1` ?
A) n

Q) What outcome does the record of this test show for `Cc1ccccc1S(=O)(=O)O` ?
A) n

Q) What outcome does the record of this test show for `c1ccc2c(c1)Oc1ccccc1S2` ?
A) n

Q) What outcome does the record of this test show for `CC(C)(Oc1ccc(Cl)cc1)C(=O)O` ?
A) n

Q) What outcome does the record of this test show for `O=C(OCc1ccccc1)c1ccccc1` ?
A) n

Q) What outcome does the record of this test show for `COC(=O)c1ccccc1` ?
A) n

Q) What outcome does the record of this test show for CCC(C)NC(N)=O (stereo unspecified) ?
A) n

Q) What outcome does the record of this test show for CCC(C)(CCC(C)C)C(=O)O (stereo unspecified) ?
A) n

Q) What outcome does the record of this test show for CCOc1ccc2c(c1)C(C)CC(C)(C)N2 (stereo unspecified) ?
A) n

Q) What outcome does the record of this test show for `CCOC(=O)c1ccccc1` ?
A) n

Q) What outcome does the record of this test show for `O=[N+]([O-])c1ccccc1C(F)(F)F` ?
A) n

Q) What outcome does the record of this test show for `COc1c2occc2cc2ccc(=O)oc12` ?
A) n

Q) What outcome does the record of this test show for `CNC(=C[N+](=O)[O-])NCCSCc1csc(CN(C)C)n1` ?
A) n

Q) What outcome does the record of this test show for `COC(=O)[C@]1(C)CCC[C@@]2(C)[C@H]1CC=C1C=C(C(C)C)CC[C@@H]12` ?
A) n

Q) What outcome does the record of this test show for O=C(CC(C(=O)OC1CCCCC1)S(=O)(=O)O)OC1CCCCC1 (stereo unspecified) ?
A) n

Q) What outcome does the record of this test show for `Nc1nnc(-c2ccc([N+](=O)[O-])o2)o1` ?
A) n

Q) What outcome does the record of this test show for CCCCCCC1CCC(=O)O1 (stereo unspecified) ?
A) n

Q) What outcome does the record of this test show for `CCCCCCCC#N` ?
A) n

Q) What outcome does the record of this test show for `CN(C)CCCN1c2ccccc2CCc2ccc(Cl)cc21` ?
A) y

Q) What outcome does the record of this test show for CCCCCCCCCCC1CO1 (stereo unspecified) ?
A) n

Q) What outcome does the record of this test show for `CCO[Si](CCCN)(OCC)OCC` ?
A) n

Source of measurements: PubChem BioAssay (EPA / NIEHS)
